Tested on: IL-12 induced STAT4 phophorylation mediated by Tyk2/JAK2 (heterodimeric complex)
Assay: IL-12 Induced pSTAT4 in Human PBMC
Assay type: cell-based
Details: 1.7 ng/mL IL-12
propertyName: IC50

These solved cases illustrate the format of a correct answer.
CNc1cc(Nc2cc(Cl)cn(-c3ccn(C4CC4)n3)c2=O)nc2c(C(=O)NC3CC3)cnn12 = < 100 nM
[2H]C([2H])([2H])Oc1ncccc1Nc1cc(NC)n2ncc(C(=O)N[C@H]3C[C@H]3F)c2n1 = < 100 nM
CNc1cc(Nc2cccn(-c3cccc(C)n3)c2=O)nc2c(C(=O)N[C@H]3C[C@H]3F)cnn12 = < 100 nM
CNc1cc(-c2cn(C(C)C)c3ncccc23)nc2c(C(=O)NC3CCC3)cnn12 = < 100 nM
CNc1cc(Nc2cccn([C@H]3CC[C@H](OC)CC3)c2=O)nc2c(C(=O)NCC3(CO)CC3)cnn12 = 100 to 500 nM

Consider `CNc1cc(Nc2cccn(-c3cccc(C(C)(C)O)n3)c2=O)nc2c(C(=O)N[C@H]3C[C@H]3F)cnn12` . Its measured IC50 is < 100 nM

The molecule identified as CNc1cc(Nc2cccc3ocnc23)nc2c(C(=O)N[C@@H]3CC[C@@H]3O)cnn12 [I-661] registered its IC50 at < 100 nM

// sample `CNc1cc(Nc2cccn(-c3ncccc3F)c2=O)nc2c(C(=O)O)cnn12` , its IC50 was > 1000 nM

---

Test system: IL-12 induced STAT4 phophorylation mediated by Tyk2/JAK2 (heterodimeric complex)
Test: IL-12 Induced pSTAT4 in Human PBMC
Format: cell-based
Details: 1.7 ng/mL IL-12
propertyName: IC50

CNc1cc(-c2cn(C3CCOCC3)c3ncc(F)cc23)nc2c(C(=O)N[C@H]3CC[C@@H]3O)cnn12 = < 100 nM

Form field IC50, entry `CNc1cc(Nc2cccn(-c3cnn(CC4CCOCC4)c3)c2=O)nc2c(C(=O)NC3CC3)cnn12` : 100 to 500 nM

Noted for `CNc1cc(Nc2cccn([C@H]3CC[C@H](OC)CC3)c2=O)nc2c(C(=O)NCC(C)(C)CO)cnn12` : its IC50 reads < 100 nM

Per the records, this compound ( `CNc1cc(Nc2cc(C)cc(C)c2)nc2c(C(N)=O)cnn12` ) has IC50 equal to < 100 nM

---

System: GM-CSF induced STAT5 phosphorylation mediated by the JAK2/JAK2 homdimeric complex
Assay: GM-CSF Induced pSTAT5 in Human PBMC
Conditions: Homo sapiens, PBMC, 20 min, read-out: PBMC_GMCSF_pSTAT5 IC50, human PBMC; GM-CSF 5 ng/mL for 20 minutes; pSTAT5
pIC50: −log10 of the molar value.
propertyName: pIC50

Answered examples (2):
CNc1cc(Nc2cccc(N3CCO[C@]4(CCOC4)C3)n2)nc2c(C(=O)NC3CC3)cnn12 = < 4.30
CNc1cc(Nc2cccn(C3CCOCC3)c2=O)nc2c(C(=O)N[C@H]3C[C@H]3F)cnn12 = < 5.60

// `CNc1cc(Nc2cccnc2OC(F)F)nc2c(C(=O)N[C@H]3C[C@H]3F)cnn12` : pIC50 value = < 4.90

---

System: IL-12 induced STAT4 phophorylation mediated by Tyk2/JAK2 (heterodimeric complex)
Test: IL-12 Induced pSTAT4 in Human PBMC
Format: cell-based
Details: 1.7 ng/mL IL-12
# IC50 per entry

Known results for compounds:
CNc1cc(Nc2cccc(-c3cn(C)nc3F)n2)nc2c(C(=O)N[C@@H]3C[C@@H]3F)cnn12 = < 100 nM
CNc1cc(Nc2cccnc2OC)nc2c(C(=O)N[C@@H]3CC[C@H]3O)cnn12 [I-396] = < 100 nM
CNc1cc(Nc2cc(F)cnc2OC2CC2)nc2c(C(=O)N[C@H]3C[C@H]3F)cnn12 = < 100 nM
CNc1cc(Nc2cccn([C@H]3CC[C@@H]3O)c2=O)nc2c(C(=O)N[C@@H]3C[C@@H]3F)cnn12 = < 100 nM
CNc1cc(Nc2cc(F)cnc2OCCOC)nc2c(C(=O)NC3CCC3)cnn12 = < 100 nM
CNc1cc(Nc2cc(F)cn(-c3ccccn3)c2=O)nc2c(C(=O)NC3CCC3)cnn12 = < 100 nM

Record `CNc1cc(Nc2cccn(-c3ccc(OC)cn3)c2=O)nc2c(C(=O)N[C@H]3C[C@H]3F)cnn12` , field IC50: < 100 nM

IC50 in this record for `[2H]C([2H])([2H])Oc1ncccc1Nc1cc(NC)n2ncc(C(=O)NC3CCC3)c2n1` : < 100 nM

---

Test system: IL-12 induced STAT4 phophorylation mediated by Tyk2/JAK2 (heterodimeric complex)
Experiment: IL-12 Induced pSTAT4 in Human PBMC
Assay type: cell-based
Conditions: 1.7 ng/mL IL-12
propertyName: IC50

Worked set:
CNc1cc(Nc2cccn([C@H]3CCCOC3)c2=O)nc2c(C(=O)NC3CC3)cnn12 = < 100 nM
CNc1cc(Nc2cccc([C@@H]3CCCOC3)n2)nc2c(C(=O)N[C@H]3C[C@H]3F)cnn12 = < 100 nM
CNc1cc(-c2cn(C(C)C)c3ncccc23)nc2c(C(=O)N[C@@H]3COC[C@@H]3O)cnn12 = < 100 nM
CNc1cc(Nc2cccn(-c3nn(C)cc3C)c2=O)nc2c(C(=O)NC3CC3)cnn12 = > 1000 nM
[2H]C([2H])([2H])Nc1cc(Nc2cccnc2OC2CC2)nc2c(C(=O)N[C@@H]3C[C@@H]3F)cnn12 (stereo in doubt) = < 100 nM
CNc1cc(Nc2cccn([C@H]3CCCC[C@H]3OC)c2=O)nc2c(C(=O)N[C@H]3CC[C@@H]3OC)cnn12 = < 100 nM
CNc1cc(Nc2cc(C)cnc2OC2CC2)nc2c(C(=O)NC3CC3)cnn12 = 100 to 500 nM
CNc1cc(Nc2cccn(-c3ccn(C)n3)c2=O)nc2c(C(=O)NC3CC3)cnn12 = < 100 nM

In plain terms, CNc1cc(Nc2cccn(-c3ccn(C4CC4)n3)c2=O)nc2c(C(=O)N[C@@H]3C[C@@H]3F)cnn12 (stereo in doubt) has a documented IC50 of < 100 nM

Recorded result, `CNc1cc(Nc2cccn([C@H]3CC[C@@](C)(OC)CC3)c2=O)nc2c(C(=O)N[C@H]3C[C@H]3F)cnn12` , IC50: < 100 nM

Entry `CNc1cc(-c2cn(CCN3CCCCC3)c3ncccc23)nc2c(C(=O)N[C@H]3C[C@H]3F)cnn12` — recorded IC50 = < 100 nM

Query `CNc1cc(Nc2cccn([C@H]3CC[C@@](C)(O)CC3)c2=O)nc2c(C(=O)N[C@H]3C[C@H]3F)cnn12` yields IC50 of < 100 nM

For `CNc1cc(Nc2cccn([C@H]3CC[C@](C)(O)CC3)c2=O)nc2c(C(=O)NC3CC3)cnn12` the molecule record lists IC50 as 100 to 500 nM

---

Tested on: GM-CSF induced STAT5 phosphorylation mediated by the JAK2/JAK2 homdimeric complex
Test: GM-CSF Induced pSTAT5 in Human PBMC
Conditions: Homo sapiens, PBMC, 20 min, read-out: PBMC_GMCSF_pSTAT5 IC50, human PBMC; GM-CSF 5 ng/mL for 20 minutes; pSTAT5
The following molecules are shown together with reported IC50 values.

CNc1cc(-c2c[nH]c3c(C)cc(C)cc23)nc2c(C(N)=O)cnn12 [I-36] = > 12.5 µM

// recorded IC50 for CNc1cc(Nc2cccc(N3CCC34COC4)n2)nc2c(C(=O)N[C@H]3C[C@H]3F)cnn12 [I-709] : > 50 µM

Just so you know, measured IC50 for CNc1cc(Nc2cccn([C@H]3CC[C@H](OC)CC3)c2=O)nc2c(C(=O)NC3CCC3)cnn12 [I-345] came out at > 50 µM

response.value for [2H]C([2H])([2H])Oc1ncc(C)cc1Nc1cc(NC)n2ncc(C(=O)NC3CC3)c2n1 [I-258] (field: IC50) = > 50 µM

Record CNc1cc(Nc2cccc3ocnc23)nc2c(C(=O)NC3CCC3OC)cnn12 (centres unmarked) [I-1051] , field IC50: > 50 µM

---

This section presents compounds with their documented IC50 values.
Tested on: GM-CSF induced STAT5 phosphorylation mediated by the JAK2/JAK2 homdimeric complex
Experiment: GM-CSF Induced pSTAT5 in Human PBMC
Conditions: Homo sapiens, PBMC, 20 min, read-out: PBMC_GMCSF_pSTAT5 IC50, human PBMC; GM-CSF 5 ng/mL for 20 minutes; pSTAT5

Example results:
CNc1cc(-c2cn(C(C)C)c3ncccc23)nc2c(C(=O)N[C@H]3CC[C@H]3O)cnn12 = > 12.5 µM
CNc1cc(Nc2cccc([C@H]3CCCOC3)n2)nc2c(C(=O)N[C@@H]3CC[C@H]3O)cnn12 = > 12.5 µM
CNc1cc(Nc2cccn(C3CCCCC3)c2=O)nc2c(C(=O)N[C@@H]3CC[C@@H]3O)cnn12 = > 50 µM

Then there is this compound:
Kindly note the recorded IC50 for `CNc1cc(Nc2cccn(-c3cnn(C)c3)c2=O)nc2c(C(=O)N[C@H]3C[C@H]3F)cnn12` , which is > 50 µM
